Data origin: patent US20200289563A1

# Test Target: T1, cynomolgus monkey CD19 (cynomolgus monkey, UniProt A0A2K5W8L9 20-557)
# T1 construct: whole, on cells; also called cyno CD19; cPro1
# T1 sequence: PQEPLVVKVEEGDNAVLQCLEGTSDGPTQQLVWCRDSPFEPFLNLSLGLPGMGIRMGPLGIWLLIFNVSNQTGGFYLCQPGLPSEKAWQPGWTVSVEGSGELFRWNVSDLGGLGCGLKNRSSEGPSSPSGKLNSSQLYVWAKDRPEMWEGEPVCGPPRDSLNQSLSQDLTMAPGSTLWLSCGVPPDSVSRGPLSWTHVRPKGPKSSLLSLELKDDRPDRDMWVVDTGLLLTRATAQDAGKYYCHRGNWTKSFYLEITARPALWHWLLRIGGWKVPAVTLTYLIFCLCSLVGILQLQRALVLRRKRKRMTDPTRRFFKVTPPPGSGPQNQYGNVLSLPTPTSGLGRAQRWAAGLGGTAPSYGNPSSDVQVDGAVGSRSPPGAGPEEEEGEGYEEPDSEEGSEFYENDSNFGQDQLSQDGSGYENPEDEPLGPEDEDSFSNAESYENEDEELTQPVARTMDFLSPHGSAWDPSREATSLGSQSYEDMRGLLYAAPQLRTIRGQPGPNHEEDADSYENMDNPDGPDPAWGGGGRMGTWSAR
# Method: flow cytometry on cynomolgus CD19 transfected CHO-K1 cells
# Procedure: The cynomolgus CD19 transfected CHO-K1 cells were plated in 96-well U-bottom plates (BD) at a density of 1×10⁵ cells/well. The purified antibody were serially diluted in the staining buffer (1×PBS/1% BSA) and incubated with cells for 1 hr at 4° C. […] The fluorescence intensity was measured by flow cytometry (BD Canto II) and analyzed by FlowJo. The binding activity to cynomogus monkey CD19 of candidate antibodies was evaluated using cynomolgus monkey CD19 transfected CHO-K1 cell line (FIG. 5).
For each record, check the reported EC50: if it is below 900 pM write condition met, else write condition not met.

>  <Binder>
WBP7011_4.155.8 (antibody, V domains shown) VH: EIQLQQSGPELVKPGASVKVSCKASGYAFTSYNMYWVKQSHGKSLEWIGYIDPYNGDTTYNQKFKGKATLTVDKSSSTAYMHLNSLTSEDSAVYYCLTTAYAMDYWGQGTSVTVSS VL: QIVLTQSPAIMSASLGEEITLTCSASSTVNYMHWYQQKSGTSPKLLIYSTSNLASGVPSRFSGSGSGTFYSLTIRSVEAEDAADYYCHQWSSYPYTFGGGTKLEIK

>  <Category Label>
condition not met

$$$$
>  <Binder>
WBP7011_4.202.9 (antibody, mouse IgG2a, V domains shown, also called W7011-4.202.9) VH: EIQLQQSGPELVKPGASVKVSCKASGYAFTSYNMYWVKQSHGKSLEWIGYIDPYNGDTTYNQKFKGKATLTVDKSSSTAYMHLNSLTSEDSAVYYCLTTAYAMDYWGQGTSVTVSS VL: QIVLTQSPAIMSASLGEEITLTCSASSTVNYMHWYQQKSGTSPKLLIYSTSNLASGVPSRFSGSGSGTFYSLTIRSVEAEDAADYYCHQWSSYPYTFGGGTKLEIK

>  <Category Label>
condition not met

$$$$
>  <Binder>
WBP7011-4.34.11 (antibody, V domains shown) VH: EVQLQQSGPELVKPGASVKMSCKASGYTFTNYVIHWVKQKPGQGLEWIGYFNPYNDGTEYNEKFKAKATLTSDKSSSTAYMELSSLTSEDSAVYYCAKGPYYYGSSPFDYWGQGTTLTVSS VL: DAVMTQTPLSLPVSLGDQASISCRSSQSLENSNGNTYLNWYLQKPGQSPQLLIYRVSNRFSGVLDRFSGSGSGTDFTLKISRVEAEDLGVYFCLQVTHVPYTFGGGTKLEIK

>  <Category Label>
condition met

$$$$
>  <Binder>
WBP7011_4.231.5 (antibody, V domains shown, also called W7011-4.231.5) VH: EVQLQQSGPELVKPGASVKMSCKASGYTFTSYVMHWVKQKPGQGLEWIGYINPYNDGTQYNEKFKGKATLTSDKSSSTAYMELSSLTSEDSAVYYCARGPYYYSPSPFDYWGQGTTLTVSS VL: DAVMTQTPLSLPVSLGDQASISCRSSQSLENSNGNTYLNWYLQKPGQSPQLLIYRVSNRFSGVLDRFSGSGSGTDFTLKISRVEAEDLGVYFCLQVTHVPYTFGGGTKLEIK

>  <Category Label>
condition met

$$$$
>  <Binder>
WBP7011_4.108.3 (antibody, V domains shown, also called W7011-4.108.3) VH: EVQLQQSGPELVKPGASVEMSCKASGYTFTSYVIHWLKQKPGQGLEWIGYINPYNDGAEYNEKFKGKATLTSDKSSSTAYMDLNSLTSEDSAVYYCARGPYYYGSSPFDYWGQGTTLTVSS VL: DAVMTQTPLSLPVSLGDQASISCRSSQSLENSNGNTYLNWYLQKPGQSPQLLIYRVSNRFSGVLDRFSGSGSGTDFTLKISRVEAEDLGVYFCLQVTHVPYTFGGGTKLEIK

>  <Category Label>
condition met

$$$$
>  <Binder>
WBP7011-4.100.1 (antibody, V domains shown, also called W7011-4.100.1) VH: EVQLQQSGPELVKPGASVKMSCKASGYTFTSYVIHWVKQKPGQGLEWIGYINPYNDGAEYTEKFKGKATLTSDKSSSTAYMELSSLTSEDSTVYYCARGPYYYGGSPFDYWGQGTTLTVSS VL: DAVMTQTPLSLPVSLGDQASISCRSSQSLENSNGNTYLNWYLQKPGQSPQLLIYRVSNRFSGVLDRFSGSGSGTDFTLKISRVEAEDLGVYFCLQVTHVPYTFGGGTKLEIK

>  <Category Label>
condition met

$$$$
>  <Binder>
WBP7011-4.87.6 (antibody, V domains shown) VH: QVQLQQSGAELVRPGSSVKISCKASGYAFSTYWMNWVKQRPGQGLEWIGQIYPGDDDTKYNGKFKGKASLTADKSSSTAYMQLISLTSEDSAVYFCARRYFRYDYWYSDVWGAGTTVTVTS VL: DIQMTQTTSSLSASLGDRVTISCRASQDISNYLNWYQQKPDGTVKLLIYYTSRLHSGVPARFSGSGSGTDYSLTISNLEQEDIATYFCHQGNTLPLTFGAGTKLELK

>  <Category Label>
condition met

$$$$
>  <Binder>
WBP7011-4.15.10 (antibody, V domains shown, also called W7011-4.15.10) VH: EVQLQQSGPELVKPGASVKMSCKASGYTFTSYVMHWMKQKPGQGLEWIGYINPYNDGTEYHEKFKGKATLTSDKSSSTAYMELSSLTSEDSAVFYCARGPYYYGGSPFDFWGQGTTLTVSS VL: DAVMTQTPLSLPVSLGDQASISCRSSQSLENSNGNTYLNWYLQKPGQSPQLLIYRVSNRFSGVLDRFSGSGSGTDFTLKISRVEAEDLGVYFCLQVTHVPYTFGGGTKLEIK

>  <Category Label>
condition met

$$$$
>  <Binder>
WBP7011_4.225.7 (antibody, mouse IgG2a, V domains shown, also called W7011-4.225.7) VH: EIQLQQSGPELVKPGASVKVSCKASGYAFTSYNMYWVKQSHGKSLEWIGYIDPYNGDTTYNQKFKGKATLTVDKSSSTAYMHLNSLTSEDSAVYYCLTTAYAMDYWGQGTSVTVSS VL: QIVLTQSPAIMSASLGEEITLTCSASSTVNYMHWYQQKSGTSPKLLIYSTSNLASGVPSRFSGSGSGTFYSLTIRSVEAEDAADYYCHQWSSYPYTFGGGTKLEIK

>  <Category Label>
condition not met

$$$$
>  <Binder>
WBP7011_4.56.1 (antibody, V domains shown, also called W7011-4.56.1) VH: EVQLQQSGPELVKPGASVKMSCKASGYTFTNYVIHWVKQKPGQGLEWIGYINPYNDGTEYNEKFKGKATLTSDTSSSTAYMALSSLTSEDSAVYYCTRGPYYYGGSPFDYWGQGTTLTVSS VL: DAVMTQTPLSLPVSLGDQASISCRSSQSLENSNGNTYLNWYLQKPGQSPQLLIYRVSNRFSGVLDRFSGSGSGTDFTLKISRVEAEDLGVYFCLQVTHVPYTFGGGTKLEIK

>  <Category Label>
condition met

$$$$
>  <Binder>
WBP7011-4.106.3 (antibody, V domains shown, also called W7011-4.106.3) VH: EVQLQQSGPELVKPGASVKMSCKASGYTFSSYVIHWVKQKPGQGLEWIGYINPYNDGAEYAEKFKGKATLTSDKSSSSAYMELGSLTSEDSAVYYCARGPYYYGGSPFDYWGQGTTLTVSS VL: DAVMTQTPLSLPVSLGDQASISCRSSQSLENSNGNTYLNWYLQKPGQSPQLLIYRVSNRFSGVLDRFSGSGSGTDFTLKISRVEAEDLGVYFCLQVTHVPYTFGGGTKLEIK

>  <Category Label>
condition met

$$$$
